Value source: ChEMBL document CHEMBL1158551

Attribute: MBC
test system: Staphylococcus aureus; assay: Antibacterial activity against methicillin-[…] Staphylococcus aureus ATCC 33591 by broth microdilution method; type: functional
Could you give me the number in µg/mL? Just the number is fine.

Previously resolved entries follow.
COC(=O)[C@@H]1NC(=O)[C@H]2NC(=O)[C@H](NC(=O)[C@@H]3NC(=O)[C@H]4NC(=O)[C@H](NC(=O)[C@H](n5cc(CO[C@@H]6O[C@@H](C)[C@H](OC(C)=O)[C@@H](OC(C)=O)[C@H]6OC(C)=O)nn5)c5ccc(O)c(c5)Oc5cc4cc(O)c5C)[C@H](O)c4ccc(cc4)Oc4cc3cc(c4O)Oc3ccc(cc3)[C@H]2O)c2ccc(O)c(c2)-c2c(O)cc(O)cc21: 32
COC(=O)[C@@H]1NC(=O)[C@H]2NC(=O)[C@H](NC(=O)[C@@H]3NC(=O)[C@H]4NC(=O)[C@H](NC(=O)[C@H](n5cc(CO[C@H]6O[C@H](CO)[C@@H](O)[C@H](O)[C@@H]6O)nn5)c5ccc(O)c(c5)Oc5cc4cc(O)c5C)[C@H](O)c4ccc(cc4)Oc4cc3cc(c4O)Oc3ccc(cc3)[C@H]2O)c2ccc(O)c(c2)-c2c(O)cc(O)cc21: 16

Shift focus to the following entry.
compound COC(=O)[C@@H]1NC(=O)[C@H]2NC(=O)[C@H](NC(=O)[C@@H]3NC(=O)[C@H]4NC(=O)[C@H](NC(=O)[C@H](n5cc(CO[C@H]6O[C@H](COC(C)=O)[C@@H](OC(C)=O)[C@H](OC(C)=O)[C@H]6NC(C)=O)nn5)c5ccc(O)c(c5)Oc5cc4cc(O)c5C)[C@H](O)c4ccc(cc4)Oc4cc3cc(c4O)Oc3ccc(cc3)[C@H]2O)c2ccc(O)c(c2)-c2c(O)cc(O)cc21 , MBC observed: 64
